This collection of values is drawn from ChEMBL document CHEMBL1687913.

- Test Method Notes: Toxicity in human erythrocytes assessed as hemolysis at 12 uM after 40 mins
- Assay type: cell-based, Erythrocyte
- Stated Conditions: read-out: Activity
Where a SMILES comes first, the peptide text is derived from it. [ ]: non-standard residue; d: D form. Orn = NCCC[C@H](N)C(=O)O
Quantity Name: hemolysis at 40 min, 12 µM (%)

[[record]]
compound = "CC[C@H](C)[C@H](NC(=O)[C@H](CCCNC(=N)N)NC(=O)[C@H]1CCCN1C(=O)[C@H](CC(C)C)NC(=O)[C@H](Cc1ccccc1)NC(=O)[C@H](CCCCN)NC(=O)[C@H](CO)NC(=O)[C@H](Cc1ccccc1)NC(=O)[C@H](Cc1c[nH]c2ccccc12)NC(=O)[C@@H]1CCCN1C(=O)[C@@H](NC(=O)[C@@H](N)Cc1ccccc1)C(C)C)C(=O)N[C@@H](CC(C)C)C(N)=O"
quantity_name = "hemolysis at 40 min, 12 µM"
recorded_number = 2

[[record]]
compound = "CC[C@H](C)[C@H](NC(=O)[C@H](CCCNC(=N)N)NC(=O)CNC(=O)[C@H](CC(C)C)NC(=O)[C@H](Cc1ccccc1)NC(=O)[C@H](CCCCN)NC(=O)[C@H](CO)NC(=O)[C@H](Cc1ccccc1)NC(=O)[C@H](Cc1c[nH]c2ccccc12)NC(=O)[C@@H]1CCCN1C(=O)[C@H](CC(C)C)NC(=O)[C@@H](N)Cc1ccccc1)C(=O)N[C@@H](CC(C)C)C(N)=O (H-FLPWFSKFLGRIL-NH2)"
quantity_name = "hemolysis at 40 min, 12 µM"
recorded_number = 64

[[record]]
compound = "CC[C@H](C)[C@H](NC(=O)[C@H](CCCNC(=N)N)NC(=O)[C@H](CC(C)C)NC(=O)[C@H](CC(C)C)NC(=O)[C@H](Cc1ccccc1)NC(=O)[C@H](CCCCN)NC(=O)[C@H](CO)NC(=O)[C@H](Cc1ccccc1)NC(=O)[C@H](Cc1c[nH]c2ccccc12)NC(=O)[C@H](CCC(N)=O)NC(=O)[C@@H](NC(=O)[C@@H](N)Cc1ccccc1)C(C)C)C(=O)N[C@@H](CC(C)C)C(N)=O (H-FVQWFSKFLLRIL-NH2)"
quantity_name = "hemolysis at 40 min, 12 µM"
recorded_number = 80

[[record]]
compound = "CC[C@H](C)[C@H](NC(=O)[C@H](CCCNC(=N)N)NC(=O)CNC(=O)[C@H](CC(C)C)NC(=O)[C@H](Cc1ccccc1)NC(=O)[C@H](CCCNC(=N)N)NC(=O)[C@H](CO)NC(=O)[C@H](Cc1ccccc1)NC(=O)[C@H](Cc1c[nH]c2ccccc12)NC(=O)[C@H](CCCNC(=N)N)NC(=O)[C@@H](NC(=O)[C@@H](N)Cc1ccccc1)C(C)C)C(=O)N[C@@H](CC(C)C)C(N)=O (H-FVRWFSRFLGRIL-NH2)"
quantity_name = "hemolysis at 40 min, 12 µM"
recorded_number = 92

[[record]]
compound = "CC[C@H](C)[C@H](NC(=O)[C@H](CCCN)NC(=O)CNC(=O)[C@H](CC(C)C)NC(=O)[C@H](Cc1ccccc1)NC(=O)[C@H](CCCCN)NC(=O)[C@H](CO)NC(=O)[C@H](Cc1ccccc1)NC(=O)[C@H](Cc1c[nH]c2ccccc12)NC(=O)[C@H](CCC(N)=O)NC(=O)[C@@H](NC(=O)[C@@H](N)Cc1ccccc1)C(C)C)C(=O)N[C@@H](CC(C)C)C(N)=O (H-FVQWFSKFLG[Orn]IL-NH2)"
quantity_name = "hemolysis at 40 min, 12 µM"
recorded_number = 62

